TEST TARGET: ATR/ATRIP (Homo sapiens (Human), UniProt Q13535)
Sequence (Q13535 whole entry): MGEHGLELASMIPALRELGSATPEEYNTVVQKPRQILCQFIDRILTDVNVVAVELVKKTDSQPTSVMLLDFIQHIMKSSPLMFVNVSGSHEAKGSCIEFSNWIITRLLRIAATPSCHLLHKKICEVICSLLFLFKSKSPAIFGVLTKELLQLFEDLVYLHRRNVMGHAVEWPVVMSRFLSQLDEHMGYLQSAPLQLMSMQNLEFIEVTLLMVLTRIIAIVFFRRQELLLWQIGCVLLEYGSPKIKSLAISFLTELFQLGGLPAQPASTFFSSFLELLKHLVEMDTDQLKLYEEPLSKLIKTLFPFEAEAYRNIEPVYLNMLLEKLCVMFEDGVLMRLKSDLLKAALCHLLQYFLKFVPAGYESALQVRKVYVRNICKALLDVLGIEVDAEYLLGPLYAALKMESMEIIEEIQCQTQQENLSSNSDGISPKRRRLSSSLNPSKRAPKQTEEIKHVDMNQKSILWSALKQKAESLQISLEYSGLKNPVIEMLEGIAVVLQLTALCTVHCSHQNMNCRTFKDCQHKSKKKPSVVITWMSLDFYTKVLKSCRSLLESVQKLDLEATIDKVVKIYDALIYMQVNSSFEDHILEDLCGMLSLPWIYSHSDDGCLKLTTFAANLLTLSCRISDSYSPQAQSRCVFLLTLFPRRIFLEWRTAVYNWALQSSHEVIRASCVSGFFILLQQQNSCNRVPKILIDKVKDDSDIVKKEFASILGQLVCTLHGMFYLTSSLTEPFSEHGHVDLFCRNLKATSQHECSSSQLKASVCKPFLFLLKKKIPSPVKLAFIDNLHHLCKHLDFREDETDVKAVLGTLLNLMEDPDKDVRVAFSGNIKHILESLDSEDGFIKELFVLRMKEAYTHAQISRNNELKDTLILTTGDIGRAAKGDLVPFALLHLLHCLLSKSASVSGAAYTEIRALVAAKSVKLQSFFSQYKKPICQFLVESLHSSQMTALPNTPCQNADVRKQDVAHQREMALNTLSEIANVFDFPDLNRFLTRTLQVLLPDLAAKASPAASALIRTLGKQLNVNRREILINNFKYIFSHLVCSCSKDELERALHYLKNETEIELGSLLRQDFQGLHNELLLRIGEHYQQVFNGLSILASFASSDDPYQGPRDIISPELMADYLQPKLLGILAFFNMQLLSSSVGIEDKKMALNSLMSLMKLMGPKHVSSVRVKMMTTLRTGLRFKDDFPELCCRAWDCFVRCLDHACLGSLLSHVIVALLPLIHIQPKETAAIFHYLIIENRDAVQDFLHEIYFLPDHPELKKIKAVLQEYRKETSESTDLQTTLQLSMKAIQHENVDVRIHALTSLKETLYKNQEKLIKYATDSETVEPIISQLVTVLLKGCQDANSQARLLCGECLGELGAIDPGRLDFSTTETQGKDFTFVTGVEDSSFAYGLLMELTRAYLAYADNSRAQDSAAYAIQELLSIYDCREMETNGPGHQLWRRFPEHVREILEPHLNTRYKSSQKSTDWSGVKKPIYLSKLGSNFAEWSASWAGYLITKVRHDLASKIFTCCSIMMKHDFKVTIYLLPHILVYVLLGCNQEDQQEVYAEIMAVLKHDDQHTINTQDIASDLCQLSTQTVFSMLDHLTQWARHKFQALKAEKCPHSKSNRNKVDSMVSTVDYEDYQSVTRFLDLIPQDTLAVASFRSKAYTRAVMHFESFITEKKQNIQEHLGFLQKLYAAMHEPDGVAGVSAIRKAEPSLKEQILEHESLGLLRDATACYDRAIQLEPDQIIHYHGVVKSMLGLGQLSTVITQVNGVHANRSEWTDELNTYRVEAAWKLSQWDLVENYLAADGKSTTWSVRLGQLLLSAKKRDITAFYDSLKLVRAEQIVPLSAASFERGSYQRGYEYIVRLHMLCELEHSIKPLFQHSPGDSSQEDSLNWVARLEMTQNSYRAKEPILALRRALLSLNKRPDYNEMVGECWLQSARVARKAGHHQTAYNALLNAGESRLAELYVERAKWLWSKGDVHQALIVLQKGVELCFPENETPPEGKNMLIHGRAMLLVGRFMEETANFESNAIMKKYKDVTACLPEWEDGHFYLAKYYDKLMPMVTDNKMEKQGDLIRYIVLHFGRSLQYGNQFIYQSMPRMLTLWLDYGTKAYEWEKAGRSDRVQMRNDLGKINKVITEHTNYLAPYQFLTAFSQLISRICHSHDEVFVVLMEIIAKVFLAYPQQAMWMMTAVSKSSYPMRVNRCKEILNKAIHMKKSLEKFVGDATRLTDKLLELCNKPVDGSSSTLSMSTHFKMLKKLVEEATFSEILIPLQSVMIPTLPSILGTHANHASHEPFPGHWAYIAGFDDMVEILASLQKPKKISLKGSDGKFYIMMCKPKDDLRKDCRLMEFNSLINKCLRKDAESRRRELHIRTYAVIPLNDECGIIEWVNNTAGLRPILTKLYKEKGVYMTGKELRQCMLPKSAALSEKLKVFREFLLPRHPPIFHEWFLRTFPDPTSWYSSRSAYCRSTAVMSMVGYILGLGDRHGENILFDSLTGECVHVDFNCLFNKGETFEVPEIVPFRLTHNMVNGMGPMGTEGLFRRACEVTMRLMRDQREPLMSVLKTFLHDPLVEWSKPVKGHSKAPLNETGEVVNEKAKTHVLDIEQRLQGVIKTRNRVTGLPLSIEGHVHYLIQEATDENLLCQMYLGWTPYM
Sequence (Q8WXE1 whole entry partner): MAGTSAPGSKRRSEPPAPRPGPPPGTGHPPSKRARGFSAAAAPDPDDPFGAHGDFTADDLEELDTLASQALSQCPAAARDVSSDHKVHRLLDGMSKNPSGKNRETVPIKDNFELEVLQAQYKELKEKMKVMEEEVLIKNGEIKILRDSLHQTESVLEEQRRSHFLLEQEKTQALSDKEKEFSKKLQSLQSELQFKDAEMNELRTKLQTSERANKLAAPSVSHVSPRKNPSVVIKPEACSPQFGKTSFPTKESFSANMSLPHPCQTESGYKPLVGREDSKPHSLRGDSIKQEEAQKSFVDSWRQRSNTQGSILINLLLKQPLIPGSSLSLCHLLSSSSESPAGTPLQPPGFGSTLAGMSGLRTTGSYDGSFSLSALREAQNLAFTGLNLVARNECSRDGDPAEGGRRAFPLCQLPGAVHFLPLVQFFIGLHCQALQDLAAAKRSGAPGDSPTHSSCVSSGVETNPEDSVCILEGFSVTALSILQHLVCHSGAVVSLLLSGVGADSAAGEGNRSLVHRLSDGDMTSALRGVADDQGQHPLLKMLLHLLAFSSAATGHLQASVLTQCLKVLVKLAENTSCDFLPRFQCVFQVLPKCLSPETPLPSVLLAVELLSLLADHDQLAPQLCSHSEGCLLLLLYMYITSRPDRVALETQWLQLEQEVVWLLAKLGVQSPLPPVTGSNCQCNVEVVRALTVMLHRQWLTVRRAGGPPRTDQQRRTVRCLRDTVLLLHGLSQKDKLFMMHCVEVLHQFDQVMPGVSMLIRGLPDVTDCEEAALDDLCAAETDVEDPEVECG
MEASUREMENT NOTES: ATR/ATRIP kinase assay (TR-FRET, p53 Ser15 phosphorylation)
EXPERIMENTAL SETUP: 0.5 μM ATP, 50 nM p53
VALUE TYPE: IC50 (nM)

Examples from the recorded data:
Cc1cccc(-c2cc(N3CCOC[C@H]3C)nc3c(-c4cc[nH]n4)nn(C)c23)n1 [Compound 33] | 16
C[C@@H]1COCCN1c1cc(C(=O)N(C)C)c2c(n1)c(-c1cc[nH]n1)nn2C [Compound 30] | 15
Cc1ccccc1-c1cc(N2CCOC[C@H]2C)nc2c(-c3ccn[nH]3)nn(C)c12 [Compound 49] | 1.8
C[C@@H]1COCCN1c1cc(C2(S(C)(=O)=O)CC2)c2c(n1)c(-c1cc[nH]n1)nn2C [Compound 26] | 0.8

(P) C[C@@H]1COCCN1c1cc(C2CCOC2)c2c(n1)c(-c1ccn[nH]1)nn2C (some centres unmarked) [Compound 70]
(Q) CNC(=O)c1cc(N2CCOC[C@H]2C)nc2c(-c3cc[nH]n3)n[nH]c12 [Compound 28]
Which value of IC50 is greater, the one for P or the one for Q ? Use the label to indicate which entry you chose.
Q

(P) C[C@@H]1COCCN1c1cc(C2CC2)c2c(n1)c(-c1ccn[nH]1)nn2C [Compound 43]
(Q) CC(C)n1nc(-c2cc[nH]n2)c2nc(N3CCOC[C@H]3C)cc(-c3ccc(S(C)(=O)=O)cc3)c21 [Compound 41]
(R) C[C@@H]1COCCN1c1cc(-c2ccccn2)c2c(n1)c(-c1cc[nH]n1)nn2C [Compound 58]
(S) C[C@@H]1COCCN1c1ccc2[nH]nc(-c3cc[nH]n3)c2n1 [Compound 56]
hey, can you rank those compounds up there by IC50? biggest number first please Give your ranking as a list of the labels in the requested order.
S, R, P, Q

(1) CC(C)Oc1cc(N2CCOC[C@H]2C)nc2c(-c3ccn[nH]3)nn(C)c12 [Compound 44]
(2) C[C@@H]1COCCN1c1cc(-c2ccncc2F)c2c(n1)c(-c1cc[nH]n1)nn2C [Compound 20]
(3) C[C@@H]1COCCN1c1cc(-c2ccn(CCF)n2)c2c(n1)c(-c1cc[nH]n1)nn2C [Compound 34]
(4) C[C@@H]1COCCN1c1cc(CO)c2c(n1)c(-c1cc[nH]n1)nn2C [Compound 24]
(5) C[C@@H]1COCCN1c1cc(-c2ccnn2C)c2c(n1)c(-c1cc[nH]n1)nn2C [Compound 61]
Please list the entries, largest IC50 first. A ranking is expressed here by listing the labels in the requested order.
4, 3, 1, 2, 5
(4: 28 nM, 3: 6.1 nM, 1: 4.2 nM, 2: 1.2 nM, 5: 0.6 nM)

(A) COCc1ccc(-c2cc(N3CCOC[C@H]3C)nc3c(-c4cc[nH]n4)nn(C)c23)cc1 [Compound 51]
(B) C[C@@H]1COCCN1c1ccc2c(n1)c(-c1ccn[nH]1)nn2C [Compound 40]
Dear colleague, could you let me know whether A or B has the lower recorded IC50? Thanks. Write down the label of the entry you select.
A
(A: 1.2 nM, B: 50.6 nM)

(1) Cc1cccnc1-c1cc(N2CCOC[C@H]2C)nc2c(-c3cc[nH]n3)nn(C)c12 [Compound 62]
(2) C[C@@H]1COCCN1c1cc(-c2ccc(S(C)(=O)=O)cc2)c2c(n1)c(-c1cc[nH]n1)nn2C [Compound 7]
// which entry reports the smaller IC50, 1 or 2 ? Lab note: record the label of whichever item you select.
2

(A) Cc1cccnc1-c1cc(N2CCOC[C@H]2C)nc2c(-c3cc[nH]n3)n[nH]c12 [Compound 39]
(B) Cc1ccc(-c2cc(N3CCOC[C@H]3C)nc3c(-c4cc[nH]n4)n(C)nc23)cn1 [Compound 14]
Out of A and B , name the one with the higher IC50. Please identify the chosen entry by its label.
B
(B: 99 nM, A: 7.9 nM)

(A) C[C@@H]1COCCN1c1cc(C(=O)N(C)C)c2[nH]nc(-c3cc[nH]n3)c2n1 [Compound 27]
(B) C[C@@H]1COCCN1c1cc(C(N)=O)c2c(n1)c(-c1cc[nH]n1)nn2C [Compound 32]
Which has the smaller recorded IC50, A or B ? Response format: the label of the selected entry.
A
(A: 10 nM, B: 20 nM)

(A) C[C@@H]1COCCN1c1ccc2c(n1)c(-c1cc[nH]n1)nn2CCc1ccncc1 [Compound 77]
(B) C[C@@H]1COCCN1c1cc(C(N)=O)c2[nH]nc(-c3cc[nH]n3)c2n1 [Compound 29]
(C) Cc1cc(S(C)(=O)=O)ncc1-c1cc(N2CCOC[C@H]2C)nc2c(-c3cc[nH]n3)nn(C)c12 [Compound 17]
(D) Cc1nc([S@@+](C)[O-])ccc1-c1cc(N2CCOC[C@H]2C)nc2c(-c3cc[nH]n3)nn(C)c12 [Compound 10]
List by increasing IC50. List the labels in the requested order.
D, C, B, A
